Source: patent US8247211B2

# Tested on: Streptococcus sp.
# assay_overview: In vitro antibacterial evaluation: minimum inhibitory concentration (MIC), broth dilution method
# Type: cell-based
# condition: strain GC 1894
# Description: […]
metric_name: MIC Streptococcus pneumoniae (GC 1894) (µg/mL)
Give bare numbers, in µg/mL.

// below: answered compounds
CCOc1cc(C2OCC3OC(OC4C(CO)OC(Oc5ccc(CC6NC(=O)C(C(C)c7ccccc7)NC(=O)CNC(=O)C(CO)NC(=O)C(C(O)C7CNC(=N)N7C7OC(CO)C(O)C(O)C7O)NC(=O)C(C(O)C7CNC(=N)N7)NC6=O)cc5)C(O)C4O)C(O)C(O)C3O2)ccc1[N+](=O)[O-] (stereo not shown) ... 0.25
Cc1cc(C2OCC3OC(OC4C(CO)OC(Oc5ccc(CC6NC(=O)C(C(C)c7ccccc7)NC(=O)CNC(=O)C(CO)NC(=O)C(C(O)C7CNC(=N)N7C7OC(CO)C(O)C(O)C7O)NC(=O)C(C(O)C7CNC(=N)N7)NC6=O)cc5)C(O)C4O)C(O)C(O)C3O2)ccc1[N+](=O)[O-] (stereo not shown) ... 0.5

Form field MIC Streptococcus pneumoniae (GC 1894), entry CC(c1ccccc1)C1NC(=O)CNC(=O)C(CO)NC(=O)C(C(O)C2CN(Cc3ccc(C(C)(C)C)cc3)C(=N)N2C2OC(CO)C(O)C(O)C2O)NC(=O)C(C(O)C2CNC(=N)N2)NC(=O)C(Cc2ccc(OC3OC(CO)C(OC4OC(CO)C(O)C(O)C4O)C(O)C3O)cc2)NC1=O (stereo not shown) : 64

---

# Test system: Streptococcus sp.
# assay_overview: In vitro antibacterial evaluation: minimum inhibitory concentration (MIC), broth dilution method
# Format: cell-based
# condition: broth dilution, inoculum 5×10^5 CFU/mL, 18 hours at 35° C.
Provide the recorded MIC Streptococcus agalactiae (GC 4564) for the entries that follow.
Answers are plain numbers, in µg/mL.

// below: answered molecules
CC(c1ccccc1)C1NC(=O)CNC(=O)C(CO)NC(=O)C(C(O)C2CNC(=N)N2C2OC(CO)C(O)C(O)C2O)NC(=O)C(C(O)C2CNC(=N)N2)NC(=O)C(Cc2ccc(OC3OC(CO)C(OC4OC(CO)C(O)C5OC6(CCCCCCCCCCCC6)OC45)C(O)C3O)cc2)NC1=O (stereo not shown) [Example 210a] ... 2
CC(c1ccccc1)C1NC(=O)CNC(=O)C(CO)NC(=O)C(C(O)C2CNC(=N)N2C2OC(CO)C(O)C(O)C2O)NC(=O)C(C(O)C2CNC(=N)N2)NC(=O)C(Cc2ccc(OC3OC(CO)C(OC4OC5COC6(CCC(C(C)(C)C)CC6)OC5C(O)C4O)C(O)C3O)cc2)NC1=O (stereo not shown) ... 0.12
CC(c1ccccc1)C1NC(=O)CNC(=O)C(CO)NC(=O)C(C(O)C2CNC(=N)N2C2OC(CO)C(O)C(O)C2O)NC(=O)C(C(O)C2CNC(=N)N2)NC(=O)C(Cc2ccc(OC3OC(CO)C(OC4OC(CO)C(OCC=Cc5ccc(N(C)C)cc5)C(O)C4O)C(O)C3O)cc2)NC1=O (stereo not shown) [Example 243a] ... 16
COc1ccc(COCC2OC(OC3C(CO)OC(Oc4ccc(CC5NC(=O)C(C(C)c6ccccc6)NC(=O)CNC(=O)C(CO)NC(=O)C(C(O)C6CNC(=N)N6C6OC(CO)C(O)C(O)C6O)NC(=O)C(C(O)C6CNC(=N)N6)NC5=O)cc4)C(O)C3O)C(O)C(O)C2O)c2ccccc12 (stereo not shown) ... 0.5

Form field MIC Streptococcus agalactiae (GC 4564), entry CC(c1ccccc1)C1NC(=O)CNC(=O)C(CO)NC(=O)C(C(O)C2CNC(=N)N2C2OC(CO)C(O)C(O)C2O)NC(=O)C(C(O)C2CNC(=N)N2)NC(=O)C(Cc2ccc(OC3OC(CO)C(OC4OC(COCc5ccc(Oc6ccccc6)cc5)C(O)C(O)C4O)C(O)C3O)cc2)NC1=O (stereo not shown) : 0.12
